Data origin: patent US11352340B2

# MEASUREMENT_TARGET: PI3Kγ (p110γ) Recombinant Human Protein (Homo sapiens (Human))
# TEST_NAME: PI3K-γ Scintillation Proximity Assay
# ASSAY_CONDITIONS: read-out: PI3K-gamma SPA IC50
Structures can show the parent of a compound that is named as a salt.
IC50 for assorted molecules

Here's what some known entries look like.
{"MOLECULE": "Cc1nc(-c2cc(-c3cncc(C(=O)N(C)c4ccccc4)c3)ccn2)[nH]c1C [Example 194, trifluoroacetate salt]", "MEASUREMENT_TARGET": "PI3Kγ (p110γ) Recombinant Human Protein (Homo sapiens (Human))", "MEASURED_RESULT": "≤ 50 nM"}
{"MOLECULE": "CCS(=O)(=O)n1cc(-c2ccnc(-c3ncc(-c4ccccc4)[nH]3)c2)cn1 [Example 45, trifluoroacetate salt]", "MEASUREMENT_TARGET": "PI3Kγ (p110γ) Recombinant Human Protein (Homo sapiens (Human))", "MEASURED_RESULT": "≤ 500 nM"}
{"MOLECULE": "c1ccc(-c2cnc(-c3cc(-c4cncc(NCC5CCOCC5)c4)ccn3)[nH]2)cc1 [Example 141, Trifluoroacetate Salt]", "MEASUREMENT_TARGET": "PI3Kγ (p110γ) Recombinant Human Protein (Homo sapiens (Human))", "MEASURED_RESULT": "≤ 50 nM"}

Output IC50 of Cc1[nH]c(-c2cc(-c3cncc(N4CCOCC4)c3)ccn2)nc1C(=O)N(C)C(C)C
≤ 500 nM

Output IC50 of O=C(O)c1cccc(Cn2cc(-c3ccnc(-c4ncc(-c5ccccc5)[nH]4)c3)cn2)c1 [Example 34, trifluoroacetate salt]
≤ 500 nM

Output IC50 of CN(C)C(=O)Cn1cc(-c2ccnc(-c3ncc(-c4ccccc4)[nH]3)c2)cn1 [Example 49, trifluoroacetate salt]
> 500 nM

Output IC50 of N#Cc1ccc(C(=O)Nc2cncc(-c3ccnc(-c4ncc(-c5ccccc5)[nH]4)c3)c2)cc1
≤ 500 nM

Output IC50 of Cc1cnc(-c2cc(-c3cncc(N4CCOCC4)c3)ccn2)[nH]1
≤ 50 nM

Output IC50 of CC(C)(C)OC(=O)Nc1cncc(-c2ccnc(-c3ncc(-c4ccccc4)[nH]3)c2)c1
≤ 500 nM

Output IC50 of Cc1nc(-c2cc(-c3cncc(C(=O)NC(C)(C)C)c3)ccn2)[nH]c1C [Example 208, trifluoroacetate salt]
≤ 50 nM

Output IC50 of COc1cncc(-c2ccnc(-c3nnc(Nc4ccccc4)[nH]3)c2)c1 [Example 70, trifluoroacetate salt]
≤ 500 nM

Output IC50 of N#CCCn1cc(-c2ccnc(-c3ncc(-c4ccccc4)[nH]3)c2)cn1 [Example 52, trifluoroacetate salt]
> 500 nM

Output IC50 of Cc1[nH]c(-c2cc(-c3cncc(N4CCOCC4)c3)ccn2)nc1CO
≤ 500 nM

Output IC50 of Cc1nc(-c2cc(-c3cncc(C(=O)N4CCC(F)(F)C4)c3)ccn2)[nH]c1C [Example 173, trifluoroacetate salt]
≤ 50 nM

Output IC50 of Cc1nc(-c2cc(-c3cncc(C(=O)NC4CCOCC4)c3)ccn2)[nH]c1C [Example 160, trifluoroacetate salt]
≤ 50 nM

---

IC50 for assorted compounds
# MEASUREMENT_TARGET: PI3Kγ (p110γ) Recombinant Human Protein (Homo sapiens (Human), UniProt P48736)
# Sequence (P48736 whole entry): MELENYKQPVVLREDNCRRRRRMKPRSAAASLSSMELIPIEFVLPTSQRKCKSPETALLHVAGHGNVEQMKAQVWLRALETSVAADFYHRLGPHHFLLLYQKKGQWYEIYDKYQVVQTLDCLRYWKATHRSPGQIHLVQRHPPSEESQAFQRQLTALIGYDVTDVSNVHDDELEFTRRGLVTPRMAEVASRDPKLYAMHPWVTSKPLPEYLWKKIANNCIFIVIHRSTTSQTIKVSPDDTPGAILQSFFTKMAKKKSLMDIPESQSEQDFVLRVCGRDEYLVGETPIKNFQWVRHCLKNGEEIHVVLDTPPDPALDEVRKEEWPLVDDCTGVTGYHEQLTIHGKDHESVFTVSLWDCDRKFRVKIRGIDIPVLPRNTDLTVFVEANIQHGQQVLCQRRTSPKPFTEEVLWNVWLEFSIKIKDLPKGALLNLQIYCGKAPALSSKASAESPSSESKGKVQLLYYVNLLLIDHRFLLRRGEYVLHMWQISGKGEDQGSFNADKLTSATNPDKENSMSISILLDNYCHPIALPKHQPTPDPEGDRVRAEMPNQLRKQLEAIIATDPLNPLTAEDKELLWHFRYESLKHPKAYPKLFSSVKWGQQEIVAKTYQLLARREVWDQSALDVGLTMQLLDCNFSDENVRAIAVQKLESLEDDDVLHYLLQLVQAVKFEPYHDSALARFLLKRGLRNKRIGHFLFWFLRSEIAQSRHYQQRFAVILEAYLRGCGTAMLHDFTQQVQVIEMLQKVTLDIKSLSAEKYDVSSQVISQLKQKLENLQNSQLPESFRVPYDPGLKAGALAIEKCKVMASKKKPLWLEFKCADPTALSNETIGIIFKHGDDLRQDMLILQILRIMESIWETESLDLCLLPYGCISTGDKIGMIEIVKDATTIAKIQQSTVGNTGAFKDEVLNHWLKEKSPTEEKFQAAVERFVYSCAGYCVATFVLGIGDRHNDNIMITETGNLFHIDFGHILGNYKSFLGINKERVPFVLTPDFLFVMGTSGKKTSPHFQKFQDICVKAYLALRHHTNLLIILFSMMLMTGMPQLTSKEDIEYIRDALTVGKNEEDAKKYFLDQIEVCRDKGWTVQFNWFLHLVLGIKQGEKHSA
# TEST_NAME: PI3K-γ Scintillation Proximity Assay
# ASSAY_CONDITIONS: read-out: PI3K-gamma SPA IC50
Where a name gives a salt, the structure may show the parent alone.

Here's what some known entries look like.
{"COMPOUND": "Cn1cc(-c2ccnc(-c3ncc(-c4ccccc4)[nH]3)c2)cn1 [Example 8, trifluoroacetate salt]", "IC50": "≤ 500 nM"}
{"COMPOUND": "Cc1nc(-c2cc(C3=CCCN(S(=O)(=O)c4ccccc4)C3)ccn2)[nH]c1C [Example 214, Trifluoroacetate Salt]", "IC50": "≤ 50 nM"}
{"COMPOUND": "COc1cncc(-c2ccnc(-c3nc(C)c(NC(C)=O)[nH]3)c2)c1", "IC50": "> 500 nM"}

Output IC50 of Cc1nc(-c2cc(-c3cncc(S(C)(=O)=O)c3)ccn2)[nH]c1C [Example 108, trifluoroacetate salt]
≤ 50 nM

Output IC50 of Cc1nc(-c2cc(-c3cncc(C(=O)N4CCC(c5ccccn5)C4)c3)ccn2)[nH]c1C (racemic) [Example 170, trifluoroacetate salt]
≤ 100 nM

Output IC50 of CC(C)c1cnc(-c2cc(-c3cncc(S(C)(=O)=O)c3)ccn2)[nH]1 [Example 111, trifluoroacetate salt]
≤ 50 nM

Output IC50 of COC1CCN(C(=O)c2cncc(-c3ccnc(-c4nc(C)c(C)[nH]4)c3)c2)C1 (racemic) [Example 174, trifluoroacetate salt]
≤ 50 nM

---

# MEASUREMENT_TARGET: PI3Kγ (p110γ) Recombinant Human Protein (Homo sapiens (Human), UniProt P48736)
# TEST_NAME: PI3K-γ Scintillation Proximity Assay
# ASSAY_CONDITIONS: read-out: PI3K-gamma SPA IC50
pIC50: −log10 of the molar value. Where a name gives a salt, the structure may show the parent alone.
pIC50 for assorted molecules

{"MOLECULE": "COc1cncc(-c2ccnc(-c3cnc(-c4ccccc4)[nH]3)c2)c1", "pIC50": "≥ 7.30"}
{"MOLECULE": "Cc1[nH]c(-c2cc(-c3cncc(N4CCOCC4)c3)ccn2)nc1C(=O)NC1CCCC1", "pIC50": "≥ 7.30"}

Output pIC50 of COc1cncc(-c2ccnc(-c3nc(C(=O)O)c(C(F)(F)F)[nH]3)c2)c1 [Example 81, trifluoroacetate salt]
< 6.30

Output pIC50 of Clc1ccc(Cn2cc(-c3ccnc(-c4ncc(-c5ccccc5)[nH]4)c3)cn2)cc1 [Example 1, Trifluoroacetate Salt]
≥ 7.30

Output pIC50 of Cc1nc(-c2cc(-c3cncc(C(=O)N4CCC(c5ccccc5)CC4)c3)ccn2)[nH]c1C [Example 186, trifluoroacetate salt]
≥ 7.30

---

IC50 for assorted molecules
# MEASUREMENT_TARGET: PI3Kδ (p110δ/p85α) Recombinant Human Protein (Homo sapiens (Human))
# Sequence (O00329 whole entry): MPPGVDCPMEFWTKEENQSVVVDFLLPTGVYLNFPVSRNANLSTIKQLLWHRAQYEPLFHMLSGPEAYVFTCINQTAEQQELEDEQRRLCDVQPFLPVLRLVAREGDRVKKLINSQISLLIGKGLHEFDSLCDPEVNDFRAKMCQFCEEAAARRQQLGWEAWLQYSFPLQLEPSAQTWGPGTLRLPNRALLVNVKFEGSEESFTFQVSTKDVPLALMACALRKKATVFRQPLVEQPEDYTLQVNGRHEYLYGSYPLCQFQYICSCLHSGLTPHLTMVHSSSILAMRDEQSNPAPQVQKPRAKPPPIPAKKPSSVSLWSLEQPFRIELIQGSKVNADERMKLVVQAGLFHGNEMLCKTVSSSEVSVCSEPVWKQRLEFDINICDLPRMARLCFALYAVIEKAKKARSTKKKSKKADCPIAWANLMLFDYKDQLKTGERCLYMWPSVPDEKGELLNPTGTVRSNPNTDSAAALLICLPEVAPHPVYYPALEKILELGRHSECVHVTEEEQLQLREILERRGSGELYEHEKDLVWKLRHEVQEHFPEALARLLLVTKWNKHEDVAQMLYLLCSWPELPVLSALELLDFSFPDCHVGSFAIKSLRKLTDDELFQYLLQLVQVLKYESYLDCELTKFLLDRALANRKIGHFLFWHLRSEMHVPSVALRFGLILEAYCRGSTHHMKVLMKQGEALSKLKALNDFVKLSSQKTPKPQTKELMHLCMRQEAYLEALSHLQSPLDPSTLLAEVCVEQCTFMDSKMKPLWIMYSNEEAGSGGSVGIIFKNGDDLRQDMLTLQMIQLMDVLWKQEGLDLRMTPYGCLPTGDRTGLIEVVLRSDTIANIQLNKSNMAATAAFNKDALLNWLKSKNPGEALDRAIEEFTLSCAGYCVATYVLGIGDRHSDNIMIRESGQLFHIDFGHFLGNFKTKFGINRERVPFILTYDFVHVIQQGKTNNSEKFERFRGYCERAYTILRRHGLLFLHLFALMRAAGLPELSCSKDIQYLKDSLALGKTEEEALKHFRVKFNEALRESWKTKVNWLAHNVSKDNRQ
# Sequence (P27986 whole entry partner): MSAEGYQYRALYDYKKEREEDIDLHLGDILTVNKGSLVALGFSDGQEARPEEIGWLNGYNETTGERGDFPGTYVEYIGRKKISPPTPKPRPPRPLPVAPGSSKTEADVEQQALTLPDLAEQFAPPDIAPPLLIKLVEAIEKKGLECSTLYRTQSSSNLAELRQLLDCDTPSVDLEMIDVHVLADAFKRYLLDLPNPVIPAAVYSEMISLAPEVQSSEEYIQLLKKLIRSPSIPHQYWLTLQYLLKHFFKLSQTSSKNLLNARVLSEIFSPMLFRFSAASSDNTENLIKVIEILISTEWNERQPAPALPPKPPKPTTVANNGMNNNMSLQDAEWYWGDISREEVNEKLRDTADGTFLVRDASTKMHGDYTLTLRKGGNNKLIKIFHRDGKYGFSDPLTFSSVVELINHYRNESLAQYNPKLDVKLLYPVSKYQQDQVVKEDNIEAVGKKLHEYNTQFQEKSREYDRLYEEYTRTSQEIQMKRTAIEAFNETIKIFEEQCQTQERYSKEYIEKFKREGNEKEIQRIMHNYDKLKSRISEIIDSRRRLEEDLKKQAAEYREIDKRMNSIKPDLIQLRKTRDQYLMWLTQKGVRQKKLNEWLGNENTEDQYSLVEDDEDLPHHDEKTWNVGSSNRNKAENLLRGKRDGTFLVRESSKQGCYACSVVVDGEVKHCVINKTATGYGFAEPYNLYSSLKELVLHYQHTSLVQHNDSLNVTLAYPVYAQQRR
# TEST_NAME: PI3Kδ Scintillation Proximity Assay
# ASSAY_CONDITIONS: read-out: PI3K-delta SPA IC50
Where a name gives a salt, the structure may show the parent alone.

{"MOLECULE": "COC(=O)N1CC=C(c2cncc(-c3ccnc(-c4nc(C)c(C)[nH]4)c3)c2)C1 [Example 239]", "MEASURED_RESULT": "≤ 500 nM"}
{"MOLECULE": "CCNC(=O)c1nc(-c2cc(-c3cncc(S(C)(=O)=O)c3)ccn2)[nH]c1C [Example 252, trifluoroacetate salt]", "MEASURED_RESULT": "≤ 50 nM"}
{"MOLECULE": "Cc1nc(-c2cc(-c3cncc(C(=O)N4C[C@H](CO)[C@@H](C)C4)c3)ccn2)[nH]c1C [Example 172, trifluoroacetate salt]", "MEASURED_RESULT": "≤ 50 nM"}
{"MOLECULE": "Cc1nc(-c2cc(-c3cncc(NC(=O)OC(C)(C)C)c3)ccn2)[nH]c1C [Example 128]", "MEASURED_RESULT": "≤ 500 nM"}
{"MOLECULE": "COc1cncc(-c2ccnc(-c3cnc(NCC(C)C)[nH]3)c2)c1 [Example 64, trifluoroacetate salt]", "MEASURED_RESULT": "> 500 nM"}
{"MOLECULE": "COC(=O)C1CCN(C(=O)c2cncc(-c3ccnc(-c4nc(C)c(C)[nH]4)c3)c2)C1 (racemic) [Example 175, trifluoroacetate salt]", "MEASURED_RESULT": "≤ 50 nM"}
{"MOLECULE": "Cc1nc(-c2cc(-c3cncc(C(=O)NCC4CC4)c3)ccn2)[nH]c1C [Example 202, trifluoroacetate salt]", "MEASURED_RESULT": "≤ 100 nM"}
{"MOLECULE": "COc1cncc(-c2ccnc(-c3ncc(C(C)(C)C)[nH]3)c2)c1 [Example 88, trifluoroacetate salt]", "MEASURED_RESULT": "≤ 50 nM"}

Output IC50 of COc1cncc(-c2ccnc(-c3ncc(C(F)(F)F)[nH]3)c2)c1 [Example 79, trifluoroacetate salt]
≤ 500 nM

Output IC50 of c1ccc(-c2cnc(-c3cc(-c4cnn(C5CCNCC5)c4)ccn3)[nH]2)cc1 [Example 25, trifluoroacetate salt]
> 500 nM

Output IC50 of Cc1c[nH]c(-c2cc(-c3cncc(S(=O)(=O)N[C@H]4CC[C@H](O)CC4)c3)ccn2)n1 [Example 299, trifluoroacetate salt]
≤ 50 nM

Output IC50 of Cc1[nH]c(-c2cc(-c3cncc(N4CCOCC4)c3)ccn2)nc1CN[C@H]1CCOC1 [Example 286]
≤ 500 nM

Output IC50 of Cc1[nH]c(-c2cc(-c3cncc(N4CCOCC4)c3)ccn2)nc1C(=O)O [Example 257, Trifluoroacetate Salt]
> 500 nM

Output IC50 of COC[C@H](NC(=O)c1nc(-c2cc(-c3cncc(N4CCOCC4)c3)ccn2)[nH]c1C)c1ccccc1 [Example 275, trifluoroacetate salt]
≤ 50 nM

Output IC50 of Cc1nc(-c2cc(-c3cncc(C(=O)N4CCC(O)(Cc5ccccc5)CC4)c3)ccn2)[nH]c1C [Example 196, trifluoroacetate salt]
≤ 50 nM
